- target_under_test: T1, recombinant human N-terminal CCR6 Fc (human)
- T1 construct: also called human CCR6-Fc; hsCCR6-Nter-Fc
- assay_method_text: SPR, human CCR6 N-terminal Fc fusion coupled on the sensor chip, FAB as analyte
Kd listing for selected binders.
Only the number, expressed in pM, is required.

Some binders with known Kd results, for comparison:
{"columns": ["binder", "Kd (pM)"],
 "data": [
  ["VH5/VL1-C9-G29A FAB (Fab, V domains shown) VH: EVQLVESGGGLVQPGGSLRLSCAASGFSFSDYYMYWVRQAPGKGLEWVSYITNGGITYYPDSVKGRFTISRDNSKNTLYLQMNSLRAEDTAVYYCTSPLRGAWFAYWGQGTLVTVSS VL: DVVMTQSPLSLPVTLGQPASISCRSSQSIVHSNANTYLEWYQQRPGQSPRLLIYKVSNRFSGVPDRFSGSGSGTDFTLKISRVEAEDVGVYYCFQGTYYPLTFGQGTKLEIK", 1280],
  ["VH5/VL1-B3C9-G29A FAB (Fab, name in Kabat numbering, V domains shown) VH: EVQLVESGGGLVQPGGSLRLSCAASGFSFSDYYMYWVRQAPGKGLEWVSYITTGGRTYYPDSVKGRFTISRDNSKNTLYLQMNSLRAEDTAVYYCTSPLRGAWFAYWGQGTLVTVSS VL: DVVMTQSPLSLPVTLGQPASISCRSSQSIVHSNANTYLEWYQQRPGQSPRLLIYKVSNRFSGVPDRFSGSGSGTDFTLKISRVEAEDVGVYYCFQGTYYPLTFGQGTKLEIK", 544]
]}

Proceeding to the next binder to report its Kd.
Give the reported value of Kd for this record: VH5/VL1-B3G8-G29A FAB (Fab, name in Kabat numbering, V domains shown) VH: EVQLVESGGGLVQPGGSLRLSCAASGFSFSDYYMYWVRQAPGKGLEWVSYITTGGRTYYPDSVKGRFTISRDNSKNTLYLQMNSLRAEDTAVYYCTSPLRGAWFAYWGQGTLVTVSS VL: DVVMTQSPLSLPVTLGQPASISCRSSQSIVHSNANTYLEWYQQRPGQSPRLLIYKVSNRFSGVPDRFSGSGSGTDFTLKISRVEAEDVGVYYCFQGTYLPLTFGQGTKLEIK 526
